target: HLA DRB4*0101 (human); assay: competition with 125I probe peptide, purified HLA
pIC50: −log10 of the molar value.
Quick reference for pIC50 among some binders
Reported Property: pIC50

* WKHIRLECVLMYKAR (modifications not checked) [HPV31.E2.033 HTL epitope] | 6.99
* WKHMRLECAIYYKAR (modifications not checked) [HPV16.E2.033 HTL epitope] | 6.12
* NGWFYVEAVIDRQTG (modifications not checked) [HPV31.E1.15 HTL epitope] | 6.20
* QRFHNIRGRWTGRCM (modifications not checked) [HPV16.E6.130 HTL epitope] | 5.34

Measured values drawn from patent US20100272750A1 for this set.
